Where do these numbers come from? They come from paper PMC11359702.

- System: RPMI-8226
- protocol-summary: NCI-60 five-dose assay
- Format: cell-based, human
- protocol-conditions: RPMI-8226
So basically, if GI50 comes in under 2 µM it's 1, and if it's 2 µM or more it's 0.

>>> print(df.to_string())
                                   molecule  target_system  group_label
0  O=C(/C=C/C12c3ccccc3C(c3ccccc31)C1C(=O)NC(=O)C12)c1ccc(F)cc1 (racemic) [Compound 23h]      RPMI-8226            1
1  CCc1ccc(C(=O)/C=C/C23c4ccccc4C(c4ccccc42)C2C(=O)NC(=O)C23)cc1 (centres unmarked) [Compound 23c]      RPMI-8226            1
2  O=C(/C=C/C12c3ccccc3C(c3ccccc31)C1C(=O)NC(=O)C12)c1ccc(Cl)cc1Cl (centres unmarked) [Compound 23d]      RPMI-8226            1
3  O=C(/C=C/C12c3ccccc3C(c3ccccc31)C1C(=O)N(c3ccccc3)C(=O)C12)c1ccccc1 (centres unmarked) [Compound 24f]      RPMI-8226            1
4  O=C(/C=C/C12c3ccccc3C(c3ccccc31)C1C(=O)NC(=O)C12)c1ccccn1 (centres unmarked) [Compound 23n]      RPMI-8226            1

Prompt line: Does O=C(/C=C/C12c3ccccc3C(c3ccccc31)C1C(=O)N(c3ccccc3)C(=O)C12)c1ccc(Cl)cc1 (centres unmarked) [Compound 24l] have GI50 strictly under 2 µM?
Response line: 1

Prompt line: Next molecule up: O=C(/C=C/C12c3ccccc3C(c3ccccc31)C1C(=O)NC(=O)C12)c1ccncc1 (centres unmarked) [Compound 23m]
Response line: 0

Prompt line: // same read-out, input: O=C(c1ccccc1)c1ccc(N2C(=O)C3C4c5ccccc5C(/C=C/C(=O)c5ccccn5)(c5ccccc54)C3C2=O)cc1 (centres unmarked) [Compound 26n]
Response line: 0

Prompt line: Can you check O=C(/C=C/C12c3ccccc3C(c3ccccc31)C1C(=O)NC(=O)C12)c1ccco1 (centres unmarked) [Compound 23o] next?
Response line: 1

Prompt line: Also, O=C(/C=C/C12c3ccccc3C(c3ccccc31)C1C(=O)NC(=O)C12)c1ccc(Cl)cc1 (racemic) [Compound 23l] please.
Response line: 1

Prompt line: Consider next the molecule O=C(C=CC12c3ccccc3C(c3ccccc31)C1C(=O)N(c3ccc(Cl)cc3)C(=O)C12)c1ccccn1 (centres unmarked) [Compound 25n] in the same way.
Response line: 1

====

Below is a list of entries, each paired with its recorded cell viability value.
- Test system: PGA-1 cells
- protocol-conditions: 10 µM
Reply with a number, then the unit it belongs to.

# example entries with known answers
In [3]: df
Out[3]:
                                   compound  target_system  result
0  O=C(C=CC12c3ccccc3C(c3ccccc31)C1C(=O)N(c3ccc(Cl)cc3)C(=O)C12)c1ccc(I)cc1 (stereo not shown) [Compound 25g]    PGA-1 cells     33%
1  CCc1ccc(C(=O)/C=C/C23c4ccccc4C(c4ccccc42)C2C(=O)NC(=O)C23)cc1 (stereo not shown) [Compound 23c]    PGA-1 cells      7%

Prompt line: // lookup cell viability | system=PGA-1 cells | key= O=C(C=CC12c3ccccc3C(c3ccccc31)C1C(=O)N(c3ccccc3)C(=O)C12)c1ccco1 (stereo not shown) [Compound 24o]
Response line: 9%

Prompt line: Lookup O=C(/C=C/C12c3ccccc3C(c3ccccc31)C1C(=O)N(c3ccccc3)C(=O)C12)c1ccc(Cl)cc1 (stereo not shown) [Compound 24l]
Response line: 17%

Prompt line: Can you handle O=C(c1ccccc1)c1ccc(N2C(=O)C3C4c5ccccc5C(C=CC(=O)c5ccco5)(c5ccccc54)C3C2=O)cc1 (stereo not shown) [Compound 26o] next?
Response line: 9%

Prompt line: What do you have for O=C(/C=C/C12c3ccccc3C(c3ccccc31)C1C(=O)NC(=O)C12)c1ccc2ccccc2c1 (stereo not shown) [Compound 23p] ?
Response line: 0%

Prompt line: Next compound: O=C(c1ccccc1)c1ccc(N2C(=O)C3C4c5ccccc5C(/C=C/C(=O)c5ccccn5)(c5ccccc54)C3C2=O)cc1 (stereo not shown) [Compound 26n]
Response line: 18%

Prompt line: Next record, please: O=C(/C=C/C12c3ccccc3C(c3ccccc31)C1C(=O)N(c3ccc(C(=O)c4ccccc4)cc3)C(=O)C12)c1ccc(Br)cc1 (stereo not shown) [Compound 26a]
Response line: 29%

Prompt line: # iterate: O=C(C=CC12c3ccccc3C(c3ccccc31)C1C(=O)N(c3ccccc3)C(=O)C12)c1ccc([N+](=O)[O-])cc1 (stereo not shown) [Compound 24b]
Response line: 22%

Prompt line: How about this compound: O=C(/C=C/C12c3ccccc3C(c3ccccc31)C1C(=O)NC(=O)C12)c1ccc(I)cc1 (stereo not shown) [Compound 23g]
Response line: 2%

====

# maps each entry to its viability at 10 µM
- Tested on: PGA-1 cells
- protocol-summary: alamarBlue cell viability assay
- protocol-conditions: Homo sapiens, 24 h, read-out: cell viability
State just the number; it will be interpreted in %.

In [3]: df
Out[3]:
                                   molecule  target_system  value_unit  quantitative_readout
0  O=C(C=CC12c3ccccc3C(c3ccccc31)C1C(=O)N(c3ccc(Cl)cc3)C(=O)C12)c1ccccn1 (stereo not shown) [Compound 25n]    PGA-1 cells           %                     7
1  O=C(/C=C/C12c3ccccc3C(c3ccccc31)C1C(=O)NC(=O)C12)c1ccc(F)cc1 (racemic) [Compound 23h]    PGA-1 cells           %                     9
2  COc1cc(C(=O)/C=C/c2c3ccccc3cc3ccccc23)cc(OC)c1OC [Compound 21k]    PGA-1 cells           %                    43

Next molecule, please.
Prompt line: Consider the molecule O=C(/C=C/C12c3ccccc3C(c3ccccc31)C1C(=O)NC(=O)C12)c1ccccc1 (stereo not shown) [Compound 23f] and give its measured viability at 10 µM.
Response line: 13.9

====

- Test system: PGA-1 cells
- protocol-summary: LDH cytotoxicity assay (CytoTox 96)
- Format: cell-based
- protocol-conditions: PGA-1, 10 µM, 24 h
endpoint-label: LDH release (cytotoxicity, % cell death)
Put your answer as a value accompanied by its unit after it.

Some entries whose results are on file:
molecule	LDH release (cytotoxicity, % cell death)
O=C1C2C3c4ccccc4C(C=C[N+](=O)[O-])(c4ccccc43)C2C(=O)N1c1ccccc1 (stereo not shown) [Compound 20a]	9%
O=C(C=CC12c3ccccc3C(c3ccccc31)C1C(=O)N(c3ccc(Cl)cc3)C(=O)C12)c1ccccn1 (stereo not shown) [Compound 25n]	15%
O=C(C=CC12c3ccccc3C(c3ccccc31)C1C(=O)NC(=O)C12)c1ccc(Br)cc1 (stereo not shown) [Compound 23a]	23%

Continue with the molecule presented below.
Prompt line: Fill in: LDH release (cytotoxicity, % cell death) of O=C1C2C3c4ccccc4C(C=C[N+](=O)[O-])(c4ccccc43)C2C(=O)N1CCCCCCN1C(=O)C2C3c4ccccc4C(C=C[N+](=O)[O-])(c4ccccc43)C2C1=O (stereo not shown) [Compound 20f] is ___
Response line: 19%

====

- protocol-summary: HPLC stability study in phosphate buffers
- Type: physicochemical
- protocol-conditions: phosphate buffer; pH 4 buffer, 37 °C; read-out: Half-life pH 4 (converted)
Catalogue of half-life at 14.6 µg/mL readings, one per entry.

>>> df
                                   compound   result
0  O=C(/C=C/C12c3ccccc3C(c3ccccc31)C1C(=O)N(c3ccccc3)C(=O)C12)c1ccc(Br)cc1 (stereo not shown) [Compound 24a]  250 min

Prompt line: Quick check: half-life at 14.6 µg/mL of O=C(/C=C/c1c2ccccc2cc2ccccc12)c1ccc(Br)cc1 [Compound 21a] ?
Response line: 195 min

Prompt line: Please answer likewise for COc1ccc(C(=O)/C=C/c2c3ccccc3cc3ccccc23)cc1 [Compound 21i]
Response line: ~690 min

Prompt line: Also O=C(C=CC12c3ccccc3C(c3ccccc31)C1C(=O)NC(=O)C12)c1ccc(Br)cc1 (stereo not shown) [Compound 23a] ?
Response line: 798 min

====

- protocol-summary: HPLC stability study in phosphate buffers
- Type: physicochemical
- protocol-conditions: pH 9 buffer, 37 °C, 24 h, HPLC
Below, each entry is listed with its recorded % remaining 24 h pH 9.

Prompt line: Recorded % remaining 24 h pH 9 of O=C(/C=C/C12c3ccccc3C(c3ccccc31)C1C(=O)N(c3ccc(C(=O)c4ccccc4)cc3)C(=O)C12)c1ccc(Br)cc1 (stereo not shown) [Compound 26a] , please.
Response line: 66%

Prompt line: Same thing, different compound: O=C(c1ccccc1)c1ccc(N2C(=O)C3C4c5ccccc5C(/C=C/C(=O)c5ccccn5)(c5ccccc54)C3C2=O)cc1 (stereo not shown) [Compound 26n]
Response line: 51.20%

Prompt line: Moving on to the next compound: O=C(/C=C/C12c3ccccc3C(c3ccccc31)C1C(=O)NC(=O)C12)c1ccc(I)cc1 (stereo not shown) [Compound 23g]
Response line: 10.50%
